Recorded measurements of melting point, one per entry

# Compound, Measured quantity, Experimental result
data = [
    ("Cc1cccnc1NC[C@@H]1[C@@H](c2ccc(S(N)(=O)=O)cc2)C12CCCC2 [Example 49]", "melting point", "82 to 84 °C"),
    ("Cc1cc(F)c(Cl)cc1NC[C@@H]1[C@@H](c2ccc(S(N)(=O)=O)cc2)C1(C)C [Example 37]", "melting point", "164 to 166 °C"),
    ("Cc1cc(F)c(F)cc1NC[C@@H]1[C@@H](c2ccc(S(N)(=O)=O)cc2)C1(C)C [Example 30]", "melting point", "210 to 212 °C"),
    ("COc1ccc(NC[C@@H]2[C@@H](c3ccc(S(N)(=O)=O)cc3)C23CCCC3)c(OC)n1 [Example 9]", "melting point", "56 to 58 °C"),
    ("CC1(C)[C@H](CNc2cccc(Cl)c2)[C@H]1c1ccc(S(N)(=O)=O)cc1 [Example 24]", "melting point", "120 to 122 °C"),
]

Read the next record carefully.
Prompt line: Tell us which melting point value is on record for COc1ccc(Cl)cc1NC[C@H]1C[C@@H]1Cc1ccc(S(N)(=O)=O)cc1 [Example 54]
Response line: 126 to 128 °C
